Data provenance is PubChem BioAssay AID1159580.

Entries and their normalized growth values follow.
# experimental details: chemical genetic growth profiling, strain panel (AID 1159580);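 further: tested at 20 µM; growth read once vehicle control cultures reached saturation at 30 °C; 1 = growth at the plate median or of vehicle wells; lower values mean less growth of the strain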
# condition notes: S. cerevisiae deletion strains, growth OD, locus YNL233W, strain BNI4, active compounds read low
Out of some 5,500 compounds screened, about 2,000 (36%) were called active. Another 18% or so got no clear call; they are omitted. This is one part of the list.
Provide a numeric answer; units are not to be included.

Some compounds with recorded normalized growth:
COc1cc(C(=O)O)c(O)c2c1OCO2 :: 1.01
COc1ccc(C[C@H](N)C(=O)N[C@@H]2[C@@H](CO)OC(n3cnc4c(N(C)C)ncnc43)[C@@H]2O)cc1 (stereo not given in full) :: 1
COc1c(C2COc3cc4c(cc3C2=O)CC(O)C(C)(C)O4)ccc2c1CCC(C)(C)O2 (stereo not given) :: 1.04
COc1ccc(-c2cc(C(F)F)nn2-c2ccc(S(N)(=O)=O)cc2)cc1F :: 1.01

Shift focus to the following entry.
Return reported normalized growth; argument: `C=CC1=C(C)/C(=C/c2[nH]c(Cc3[nH]c(/C=C4\NC(=O)C(C)=C4C=C)c(C)c3CCC(=O)O)c(CCC(=O)O)c2C)NC1=O`
1.01

====

# experimental details: chemical genetic growth profiling, strain panel (AID 1159580);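 further: tested at 20 µM; growth read once vehicle control cultures reached saturation at 30 °C; 1 = growth at the plate median or of vehicle wells; lower values mean less growth of the strain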
# condition notes: S. cerevisiae deletion strains, growth OD, locus YJL095W, strain BCK1, active compounds read low
About 2,000 (36%) of roughly 5,500 compounds were called active. Inconclusive results (about 18%) are left out. The list shows a part of the results.
Entries and their normalized growth values follow.
Provide a numeric answer; units are not to be included.

Some compounds with recorded normalized growth:
O=C1/C(=C/c2c(F)cccc2Cl)Cc2ccccc21 :: 0.927
CC(=O)Oc1cc(C)c2c(c1C=O)Oc1c(c(C)c(OC(C)=O)c3c1C(OC(C)=O)OC3=O)OC2=O (stereo not given) :: 0.905

Return reported normalized growth; argument: CC12CC[C@@H](O)CC1=CC[C@@H]1C2CCC2(C)C(=O)CC[C@@H]12 (stereo not given in full)
0.815

Return reported normalized growth; argument: `CC/C=C\C/C=C\C/C=C\C/C=C\C/C=C\CCCC(=O)OCC`
0.945

Return reported normalized growth; argument: CCC(CCC(C)C1CCC2C3CC=C4C[C@@H](OC(C)=O)CC[C@]4(C)C3CC[C@]12C)C(C)C (stereo not given in full)
0.991

Return reported normalized growth; argument: COc1c(C2COc3cc4c(cc3C2=O)CC(O)C(C)(C)O4)ccc2c1CCC(C)(C)O2 (stereo not given)
1.05

Return reported normalized growth; argument: CC12CCC3C(CC=C4CC(O)CCC43C)C1CCC2=O (stereo not given)
0.655

Return reported normalized growth; argument: `O=c1ccn([C@@H]2O[C@H](COP(=O)(O)OP(=O)(O)OP(=O)(O)O)[C@@H](O)[C@H]2O)c(=O)[nH]1`
1.04

Return reported normalized growth; argument: `NC(=O)c1ccc(N)nc1`
1.03

Return reported normalized growth; argument: `O=S(=O)(Nc1cc(C(F)(F)F)ccc1F)c1cc(C(F)(F)F)ccc1Cl`
0.886

====

# experimental details: chemical genetic growth profiling, strain panel (AID 1159580);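 further: tested at 20 µM; growth read once vehicle control cultures reached saturation at 30 °C; 1 = growth at the plate median or of vehicle wells; lower values mean less growth of the strain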
# condition notes: S. cerevisiae deletion strains, growth OD, locus YPL055C, strain LGE1
Screen size: about 5,500 compounds; about 2,000 (36%) were called active. Another 18% or so got no clear call; they are omitted. No stated cut-off is given here; in the data, active means normalized growth mostly below about 0.91 (no sharp cut-off); inconclusive means no clear call, values can overlap the other calls; inactive means mostly above about 0.92. The list shows a part of the results.
Select the correct class. Options are active, inactive and nothing else.

Example entries and their recorded answers appear below.
CN=C1CN(O)C(c2ccccc2)=c2cc(Cl)ccc2=N1 :: inactive
CO[C@@H]1C[C@@H](C[C@H]2CC[C@H](C)[C@H]([C@@H](C)C(=O)O)O2)O[C@]2(O[C@](C)([C@H]3CC[C@@](C)(C4O[C@@H](C5O[C@@](O)(CO)[C@H](C)C[C@@H]5C)C[C@@H]4C)O3)C[C@H]2C)[C@@H]1C (stereo partly specified) :: inactive
CC[C@@H](C(=O)O)[C@@H]1O[C@@H]([C@@H](C)[C@H](O)[C@H](C)C(=O)[C@H](CC)[C@H]2O[C@]3(C=C[C@@H](O)[C@]4(CC[C@@](C)(C5CC[C@](O)(CC)[C@H](C)O5)O4)O3)[C@H](C)C[C@@H]2C)[C@@H](C)C[C@H]1C (stereo partly specified) :: active
O=C1CC(c2ccccc2)=NO1 :: active
CCOC(=O)c1c(C)n(-c2ccccc2)c2ccc(O)cc12 :: inactive

GET /call?item= `CCOC(=O)C1=C[C@]2(CC)CCCN3CCc4c(n1c1ccccc41)[C@@H]32` returns the recorded outcome of this test.
inactive

GET /call?item= CCC(CCC(C)C1CCC2C3CC=C4C[C@@H](OC(C)=O)CC[C@]4(C)C3CC[C@]12C)C(C)C (stereo partly specified) returns the recorded outcome of this test.
inactive

GET /call?item= `NC(=O)CI` returns the recorded outcome of this test.
inactive

GET /call?item= `BrC12CC3CC(CC(C3)C1)C2` returns the recorded outcome of this test.
inactive

GET /call?item= `NC(=O)CCSCCC(N)=O` returns the recorded outcome of this test.
inactive

GET /call?item= `O=C(O)c1cc(=O)c(O)c2c(O)c(O)ccc2c1` returns the recorded outcome of this test.
inactive

GET /call?item= `COc1ccccc1NC(=O)Nc1nc(-c2cccnc2)nc2ccccc12` returns the recorded outcome of this test.
inactive

GET /call?item= `CCOC(=O)c1ccc(N)cc1` returns the recorded outcome of this test.
inactive
